- MEASUREMENT_DESCRIPTION: In vitro cytotoxicity, resazurin assay
- Type: cell-based
- PROTOCOL_CONDITIONS: human, MRC-5 fibroblast cells (ATCC CCL-171), 3 days exposure
PROPERTY: IC50 at 3 days (µM)
Give just the numeric value; µM need not be written.

Asked: Name the reported IC50 at 3 days value associated with the compound CC/C(=C(\c1ccccc1)c1ccc(OCCN(C)C)cc1)c1ccccc1
Given back: 12.3

###

- Test system: Mycobacterium tuberculosis, strain H37Ra
- MEASUREMENT_DESCRIPTION: Antimycobacterial activity against M. tuberculosis H37Ra (luminescence, dose-response)
- Format: cell-based
- PROTOCOL_CONDITIONS: Mycobacterium tuberculosis, 168 h; H37Ra lux, luminescence at day 7, top concentration 64 μM
Examples of molecules with documented pIC50 follow.
To interpret pIC50, take it as minus log10 of a concentration measured in moles per litre.

Solved cases below.
O=c1c(NCc2ccccn2)c(-c2ccc(Br)cc2)c1=O [Compound 6b]	5.46
O=c1c(NCc2ccccn2)c(-c2ccc(F)c(F)c2)c1=O [Compound 6n]	5.61

Asked: Name the reported pIC50 value associated with the molecule COc1ccc(-c2c(NCc3ccccn3)c(=O)c2=O)cc1Cl [Compound 6l]
Given back: 5.82

Asked: Another: CCOc1c(C)cc(-c2c(NCc3ccccn3)c(=O)c2=O)cc1C [Compound 6r]
Given back: 4.87

Asked: Another: COCCOc1ccc(-c2c(NCc3ccccn3)c(=O)c2=O)cc1 [Compound 6g]
Given back: 5.06

Asked: Another: CC(C)(C)Oc1ccc(-c2c(NCc3ccccn3)c(=O)c2=O)cc1 [Compound 6f]
Given back: 5.33

Asked: Another: O=c1c(NCc2ccccn2)c(-c2ccc3c(c2)OCCO3)c1=O [Compound 6v]
Given back: 5.47

Asked: Another: COc1nc2ccc(Br)cc2cc1[C@@H](c1ccccc1)[C@@](O)(CCN(C)C)c1cccc2ccccc12 [Bedaquiline, reference compound]
Given back: 8.00

Asked: Another: O=c1c(NCc2ccccn2)c(-c2ccc(OC(F)(F)F)cc2)c1=O [Compound 6d]
Given back: 4.86
